All figures here come from patent US20110144056A1.

tested on: FAAH (Homo sapiens, UniProt O00519)
Construct: The full length FAAH was subcloned into the mammalian expression vector, pcDEF.neo; expressed in transfected cells; cDNA from Origene
Sequence (O00519 whole entry): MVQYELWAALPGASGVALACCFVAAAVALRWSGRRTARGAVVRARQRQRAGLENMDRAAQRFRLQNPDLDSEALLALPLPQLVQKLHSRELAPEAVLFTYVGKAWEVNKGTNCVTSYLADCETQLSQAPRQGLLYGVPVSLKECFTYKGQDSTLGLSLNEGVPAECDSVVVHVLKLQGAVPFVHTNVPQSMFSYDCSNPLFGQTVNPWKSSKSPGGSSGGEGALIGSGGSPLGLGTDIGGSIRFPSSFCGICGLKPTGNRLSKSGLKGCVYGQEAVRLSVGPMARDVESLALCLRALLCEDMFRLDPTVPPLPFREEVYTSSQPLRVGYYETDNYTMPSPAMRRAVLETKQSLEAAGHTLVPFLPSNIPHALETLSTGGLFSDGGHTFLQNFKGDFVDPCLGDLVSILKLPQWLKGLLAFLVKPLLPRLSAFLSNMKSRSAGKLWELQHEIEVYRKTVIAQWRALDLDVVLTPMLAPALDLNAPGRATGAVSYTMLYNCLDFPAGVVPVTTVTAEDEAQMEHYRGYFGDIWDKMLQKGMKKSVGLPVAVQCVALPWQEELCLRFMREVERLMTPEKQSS
experiment description: FAAH enzyme assay, lysate of CHO cells expressing human FAAH
Assay type: biochemical
experimental setup: cell lysate, read-out: FAAH Human Cell Lysate IC50
endpoint name: IC50

// returns reported IC50 for input `CN(C)C(=O)c1ccc2cc(-c3nn(C4CC4)cc3Sc3ccc(Cl)cc3)ccc2n1`
39 nM

// returns reported IC50 for input `Cc1ccc2cc(-c3nn(C4CC4)cc3Sc3ccc(Cl)cc3)ccc2n1`
18 nM

###

tested on: FAAH (Homo sapiens)
Construct: The full length FAAH was subcloned into the mammalian expression vector, pcDEF.neo; expressed in transfected cells; cDNA from Origene
experiment description: FAAH enzyme assay, lysate of CHO cells expressing human FAAH
Assay type: biochemical
experimental setup: CHO cell lysate, read-out: Human Lysate
Text: To assist in assay development stable cell lines for human, murine and rat full length FAAH were developed. Human FAAH cDNA (Accession No: NM_001441.1) was purchased from Origene (Rockville, Md.). The full length FAAH was subcloned into the mammalian expression vector, pcDEF.neo, using XbaI and […] restriction sites and used for stable cell line generation. CHO cells expressing FAAH were used to prepare either crude cell lysate or microsome fractions. […]
endpoint name: IC50 (µM)
Give the value in µM but do not write µM after it.

Here's what some known entries look like.
O=C(NCCCl)c1ccc(-c2nn(-c3ccccc3)cc2Sc2ccc(Cl)cc2)cc1 [Example 121] ... 0.08
CS(=O)(=O)c1ccc(-c2nn(C3CCCC3)cc2Sc2ccc(Cl)cc2)cc1 [Ex 23] ... 0.143
Clc1ccc(Sc2cn(-c3ccccc3)nc2-c2ccc(-c3c[nH]nn3)cc2)cc1 [Example 88] ... 0.121

// returns reported IC50 for input [O-][n+]1cccc(-n2cc(Sc3ccc(Cl)cc3)c(-c3ccc(-c4ncon4)cc3)n2)c1 [Example 75]
0.101
